Test system: IGROV-1 (Ovarian Carcinoma);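 note: after 72 h of two-drug dosing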
assay procedure: Bliss excess, mean over the matrix (fraction); higher = more synergy
value kind: Bliss excess

Prompt line: Need Bliss excess, item CN(CCO)CC[C@H](CSc1ccccc1)Nc1ccc(S(=O)(=O)NC(=O)c2ccc(N3CCC([C@@H](O)c4ccccc4-c4ccc(Cl)cc4)CC3)cc2)cc1S(=O)(=O)C(F)(F)F [AZD4320] + CCN(CCO)CCCOc1ccc2c(Nc3cc(CC(=O)Nc4cccc(F)c4)[nH]n3)ncnc2c1 [AZD2811] (first compound max 1 µM, 7x7, partner max 1 µM)
Response line: 0.0206

Prompt line: Consider the compound CS(=O)(=O)CCNCc1ccc(-c2ccc3ncnc(Nc4ccc(OCc5cccc(F)c5)c(Cl)c4)c3c2)o1 [Lapatinib] + C[C@@H](Oc1cc(-c2cnn(C3CCNCC3)c2)cnc1N)c1c(Cl)ccc(F)c1Cl [Crizotinib] (first compound max 10 µM, 7x7, partner max 10 µM) and give its measured Bliss excess.
Response line: -0.0518
